This collection of values is drawn from patent US5474988A.

# System: P.A.F.-induced aggregation of blood platelets
# Test Description: anti-P.A.F. action in vitro (P.A.F.-induced platelet aggregation)
# Assay type: cell-based
# Measurement Setup: Oryctolagus cuniculus, 10^-5 mole/liter, read-out: Anti-P.A.F. activity in vitro, % inhibition of the P.A.F.-induced aggregation of blood platelets from rabbit blood
Below, each of the molecules is paired with its reported inhibition at 10 µM value.
Answer with a number only, understood to be in %.

Below are worked cases with known answers.
Cc1ccnc(N2CCN(CCC3Cn4c(-c5cc(C)c(O)c(C)c5)c(C)c5cc(F)cc(c54)O3)CC2)c1 (stereo not shown); 40
COc1ccc(-c2c(C)c3cccc4c3n2CC(CCN2CCN(c3cc(C)ccn3)CC2)O4)cc1 (stereo not shown); 80
Cc1cccnc1N1CCN(CCC2Cn3c(-c4ccc(O)cc4)c(C)c4cccc(c43)O2)CC1 (stereo not shown); 79

Attention now shifts to the item below.
Give me measured inhibition at 10 µM, please, for this molecule: Cc1cc(-c2c(C)c3cccc4c3n2CC(CCC(=O)N2CCN(c3ccccn3)CC2)O4)cc(C)c1O (stereo not shown)
82

----------
Below, each entry is listed with its recorded inhibition at 10 µM.
# Assay Target: 5-lipoxygenase (Cavia porcellus)
# Construct: The 5-LO was concentrated in a known manner from PMNs of male Dunkin-Hartley guinea-pigs; endogenous in cells; host or cells: peritoneal PMNs of male Dunkin-Hartley guinea-pigs, homogenized; 10,000 x g supernatant used as enzyme solution
# Sequence (A0A286X958 1-674): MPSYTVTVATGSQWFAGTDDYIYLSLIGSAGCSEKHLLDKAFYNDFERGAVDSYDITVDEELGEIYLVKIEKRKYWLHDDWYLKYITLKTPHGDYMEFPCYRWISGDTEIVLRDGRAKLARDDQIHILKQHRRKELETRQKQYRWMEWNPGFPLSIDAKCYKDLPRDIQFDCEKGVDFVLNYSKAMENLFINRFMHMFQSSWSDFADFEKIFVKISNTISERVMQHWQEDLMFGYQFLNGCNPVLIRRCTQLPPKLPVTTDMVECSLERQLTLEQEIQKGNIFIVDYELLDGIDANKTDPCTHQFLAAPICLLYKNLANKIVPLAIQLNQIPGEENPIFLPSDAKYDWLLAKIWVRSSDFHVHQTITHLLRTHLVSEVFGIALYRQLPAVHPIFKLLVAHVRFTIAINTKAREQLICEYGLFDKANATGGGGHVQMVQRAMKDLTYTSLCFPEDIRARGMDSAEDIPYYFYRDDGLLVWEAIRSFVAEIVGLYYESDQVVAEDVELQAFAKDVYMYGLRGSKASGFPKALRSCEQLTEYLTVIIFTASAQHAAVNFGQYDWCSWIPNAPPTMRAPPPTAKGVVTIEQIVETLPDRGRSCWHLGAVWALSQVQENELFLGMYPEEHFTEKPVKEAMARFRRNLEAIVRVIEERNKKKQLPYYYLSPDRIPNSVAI
# Test Description: inhibitory activity on free 5-lipoxygenase concentrated from peritoneal PMNs of the guinea-pig (5-HETE formation)
# Type: biochemical
# Measurement Setup: 10^-5 mole/liter; guinea-pig 5-LO, 37° C.; read-out: In vitro % inhibitory activity on 5-HETE formation caused by free 5-LO
Output spec: scalar in %, unitless text.

Cc1ccnc(N2CCN(C(=O)CCC3Cn4c(-c5ccc(O)c(O)c5)c(C)c5cccc(c54)O3)CC2)c1 (centres unmarked); 99
Cc1ccnc(N2CCN(C(=O)CCC3Cn4c(-c5cc(C)c(O)c(C)c5)c(C)c5c(F)ccc(c54)O3)CC2)c1 (centres unmarked); 63
Cc1cc(-c2c(C)c3cccc4c3n2CC(CCC(=O)N2CCN(c3ccccn3)CC2)O4)cc(C)c1O (centres unmarked); 96
Cc1cc(-c2c(C)c3cccc4c3n2CC(CCCC(=O)N2CCN(c3ccccn3)CC2)O4)cc(C)c1O (centres unmarked); 93

Attention now turns to another entry.
Return inhibition at 10 µM (reported value) for this molecule: Cc1ccnc(N2CCN(C(=O)CCC3Cn4c(-c5ccc(O)cc5)c(C)c5cccc(c54)O3)CC2)c1 (centres unmarked)
94

----------
# System: P.A.F.-induced aggregation of blood platelets
# Test Description: anti-P.A.F. action in vitro (P.A.F.-induced platelet aggregation)
# Assay type: cell-based
# Measurement Setup: Oryctolagus cuniculus, 10^-5 mole/liter, read-out: Anti-P.A.F. activity in vitro, % inhibition of the P.A.F.-induced aggregation of blood platelets from rabbit blood
Measured Metric: inhibition at 10 µM (%)
Write the value in % as a bare number.

Cc1ccnc(N2CCN(CCC3Cn4c(-c5ccc(O)cc5)c(C)c5c(O)ccc(c54)O3)CC2)c1 (stereo not drawn) [Example 4]; 99
Cc1ccc(N2CCN(CCC3Cn4c(-c5ccc(O)cc5)c(C)c5cccc(c54)O3)CC2)nc1 (stereo not drawn) [Example 31]; 52
Cc1ccnc(N2CCN(CCC3Cn4c(-c5ccc(O)cc5)c(C)c5c(F)ccc(c54)O3)CC2)c1 (stereo not drawn) [Example 22]; 84
Cc1cccc(N2CCN(CCC3Cn4c(-c5ccc(O)cc5)c(C)c5cccc(c54)O3)CC2)n1 (stereo not drawn) [Example 33]; 43
COc1cc(-c2c(C)c3cccc4c3n2CC(CCN2CCN(c3cc(C)ccn3)CC2)O4)ccc1O (stereo not drawn) [Example 12]; 93

State, for P.A.F.-induced aggregation of blood platelets, measured inhibition at 10 µM of the compound listed here: COc1cc(-c2c(C)c3c(O)ccc4c3n2CC(CCC(=O)N2CCN(c3ccccn3)CC2)O4)cc(C)c1O (stereo not drawn) [Example 72]
79

Recall the reported inhibition at 10 µM of Cc1ccnc(N2CCN(CC3Cn4c(-c5ccc(O)cc5)c(C)c5cccc(c54)O3)CC2)c1 (stereo not drawn) [Example 14] when tested on P.A.F.-induced aggregation of blood platelets.
100

# assay system P.A.F.-induced aggregation of blood platelets: give inhibition at 10 µM of Cc1ccnc(N2CCN(C(=O)CCCC3Cn4c(-c5cc(C)c(O)c(C)c5)c(C)c5cccc(c54)O3)CC2)c1 (stereo not drawn) [Example 9]
67
